Experiment: 3T3 Neutral Red uptake cytotoxicity and phototoxicity assay
Details: mouse, Balb/c 3T3 fibroblasts (clone 31), Viability (%), +Irr, 10 μg/mL
quantity-name: viability at 82 min, 10 μg/mL (%)
Report only the number, with the unit % understood.

Consider the compound shown here: FC(F)(F)C1(c2ccc(C(c3ccc(C4(C(F)(F)F)N=N4)cc3)(C(F)(F)F)C(F)(F)F)cc2)N=N1 [BondLynx] What is its recorded viability at 82 min, 10 μg/mL?
103

---

Test: 3T3 Neutral Red uptake cytotoxicity and phototoxicity assay
Conditions: mouse, Viability (%), –Irr, 0.1 μg/mL
quantity-name: viability at 82 min, 0.1 μg/mL (%)
Report only the number, with the unit % understood.

Consider the compound shown here: c1ccc2cc3ccccc3cc2c1 [anthracene] What is its recorded viability at 82 min, 0.1 μg/mL?
102

---

Assay: 3T3 Neutral Red uptake cytotoxicity and phototoxicity assay
Settings: mouse, Viability (%), +Irr, 0.01 μg/mL
quantity-name: viability at 82 min, 0.01 μg/mL (%)
Report only the number, with the unit % understood.

Consider the compound shown here: c1ccc2cc3ccccc3cc2c1 What is its recorded viability at 82 min, 0.01 μg/mL?
98.1

---

Assay: 3T3 Neutral Red uptake cytotoxicity and phototoxicity assay
Details: mouse, Viability (%), –Irr, 10 μg/mL
quantity-name: viability at 82 min, 10 μg/mL (%)
Report only the number, with the unit % understood.

Consider the compound shown here: c1ccc2cc3ccccc3cc2c1 What is its recorded viability at 82 min, 10 μg/mL?
101

---

Experiment: 3T3 Neutral Red uptake cytotoxicity and phototoxicity assay
Details: mouse, Balb/c 3T3 fibroblasts (clone 31), Viability (%), +Irr, 316 μg/mL
quantity-name: viability at 82 min, 316 μg/mL (%)
Report only the number, with the unit % understood.

Consider the compound shown here: FC(F)(F)C1(c2ccc(C(c3ccc(C4(C(F)(F)F)N=N4)cc3)(C(F)(F)F)C(F)(F)F)cc2)N=N1 [BondLynx] What is its recorded viability at 82 min, 316 μg/mL?
111

---

Assay: 3T3 Neutral Red uptake cytotoxicity and phototoxicity assay
Conditions: mouse, Viability (%), –Irr, 31.6 μg/mL
quantity-name: viability at 82 min, 31.6 μg/mL (%)
Report only the number, with the unit % understood.

Consider the molecule shown here: c1ccc2cc3ccccc3cc2c1 [anthracene] What is its recorded viability at 82 min, 31.6 μg/mL?
103

---

Assay: 3T3 Neutral Red uptake cytotoxicity and phototoxicity assay
Details: mouse, Balb/c 3T3 fibroblasts (clone 31), Viability of cells over all tested concentrations, Irr+, .316 to 1000 μg/mL
quantity-name: viability (%)
Report only the number, with the unit % understood.

Consider the compound shown here: FC(F)(F)C1(c2ccc(C(c3ccc(C4(C(F)(F)F)N=N4)cc3)(C(F)(F)F)C(F)(F)F)cc2)N=N1 What is its recorded viability?
105

---

Assay: In vitro skin corrosion test, MTT viability
Conditions: human, EpiDerm Skin Model (reconstructed human epidermis)
quantity-name: viability at 1 h (%)
Report only the number, with the unit % understood.

Consider the molecule shown here: FC(F)(F)C1(c2ccc(C(c3ccc(C4(C(F)(F)F)N=N4)cc3)(C(F)(F)F)C(F)(F)F)cc2)N=N1 What is its recorded viability at 1 h?
95

---

Assay: 3T3 Neutral Red uptake cytotoxicity and phototoxicity assay
Conditions: mouse, Viability (%), –Irr, 3.16 μg/mL
quantity-name: viability at 82 min, 3.16 μg/mL (%)
Report only the number, with the unit % understood.

Consider the compound shown here: c1ccc2cc3ccccc3cc2c1 What is its recorded viability at 82 min, 3.16 μg/mL?
101
